Tested on: SF-295
Assay: NCI tumour cell line growth inhibition, 48 h
The source made the active and inactive calls. Cut-off read from the data, not from the text of the source: active = GI50 up to about 1.1 µM and inactive = higher.
Tick one outcome: 1 (yes) for active, 0 (no) for inactive

Solved cases below.
{"MOLECULE": "Cc1ccc(S(=O)(=O)NN=C2CCCCCCCCCCC2)cc1", "ASSIGNED LABEL": "0 (no)"}
{"MOLECULE": "CCOC(=O)C1C(=O)CN2CCc3c([nH]c4ccccc34)C12C(=O)OCC (configuration not stated)", "ASSIGNED LABEL": "0 (no)"}
{"MOLECULE": "O=C(CC(=O)c1cccc2ccccc12)C(=O)Nc1ccc(Cl)cc1", "ASSIGNED LABEL": "0 (no)"}
{"MOLECULE": "CC1C(c2ccc(Cl)cc2)c2cc3c(cc2OC1N1CCOCC1)OCO3 (configuration not stated)", "ASSIGNED LABEL": "0 (no)"}
{"MOLECULE": "CN1CCN(Cc2nc3cccc4c3c([n+]2[O-])-c2ccccc2-4)CC1", "ASSIGNED LABEL": "0 (no)"}
{"MOLECULE": "C=C1CC(C#N)(C#N)[C@@H]2CC3CCCC3[C@H]12.C=C1CC(C#N)(C#N)[C@H]2C3CCCC3C[C@@H]12 (some centres not stated)", "ASSIGNED LABEL": "0 (no)"}
{"MOLECULE": "CC1=C2C(=C[C@@](C)(CO)[C@@H]2O)C(=O)[C@](C)(O)C12CC2", "ASSIGNED LABEL": "1 (yes)"}
{"MOLECULE": "O=C1/C(=C/c2ccccc2)CCC/C1=C\\c1ccccc1", "ASSIGNED LABEL": "0 (no)"}

query: How did this test come out for CC1/C(=N\O)CC(c2ccccc2)N(C)C1c1ccccc1 (configuration not stated) ?
result: 0 (no)

query: How did this test come out for CCOC(=O)C1S(=O)(=O)OCCOS1(=O)=O ?
result: 0 (no)

query: How did this test come out for Cc1cc(C)c(C(=O)/C=C/c2ccccc2)c(C)c1 ?
result: 0 (no)

query: How did this test come out for CCCCCCNC(=O)C1=C(C)NC(C)=C(C(=O)NCCCCCC)C1 ?
result: 0 (no)

query: How did this test come out for N#CCC(=O)N/N=C1\C(=O)N(c2ccc(Cl)cc2)C(=O)C(=O)C1c1nc2ccccc2o1 (configuration not stated) ?
result: 0 (no)

* * *

Tested on: SF-295
Assay: NCI tumour cell line growth inhibition, 48 h
Activity calls are given as the source filed them. No stated cut-off is given here; in the data, active = GI50 up to about 1.1 µM and inactive = higher.
Tick one outcome: label 1 for active, label 0 for inactive

{"SMILES INPUT": "N#Cc1nn(-c2ccc(Cl)cc2)c(=N)c2c(N)n3nc(-c4ccccc4)cc3nc12", "ASSAY SYSTEM": "SF-295", "ASSIGNED LABEL": "label 1"}
{"SMILES INPUT": "COc1cc2cnc3c4cc(OCc5ccccc5)ccc4ccc3c2cc1OC", "ASSAY SYSTEM": "SF-295", "ASSIGNED LABEL": "label 0"}
{"SMILES INPUT": "COC(=O)c1c(O)ccc2c1c1c(n2Cc2ccccn2)C(=O)c2ccccc2C1=O", "ASSAY SYSTEM": "SF-295", "ASSIGNED LABEL": "label 0"}
{"SMILES INPUT": "COc1ccc(-c2cc(=O)c3c(OC)c(O)c(OC)cc3o2)cc1", "ASSAY SYSTEM": "SF-295", "ASSIGNED LABEL": "label 0"}
{"SMILES INPUT": "Cc1n[nH]c(C(F)(F)F)c1/N=N/N(C)C", "ASSAY SYSTEM": "SF-295", "ASSIGNED LABEL": "label 0"}

Let us examine a further case.
query: How did this test come out for O=C1C(=O)N(c2ccc(Cl)cc2Cl)C(=O)C(=O)C1c1nc2ccccc2s1 ?
result: label 0

* * *

Test system: SK-MEL-5
Assay: NCI tumour cell line growth inhibition, 48 h
Active and inactive are the calls of the source. No stated cut-off is given here; in the data, active = GI50 up to about 1.1 µM and inactive = higher.
Tick one outcome: true (1) for active, false (0) for inactive

Solved cases below.
{"COMPOUND": "COc1ccc2cc3c4cc(OC)c(OC)cc4ccn3c2c1", "ASSIGNED LABEL": "false (0)"}
{"COMPOUND": "Cc1ccc(Nc2n[nH]c(NS(=O)(=O)c3cc(C)c(Cl)cc3S)n2)cc1", "ASSIGNED LABEL": "false (0)"}
{"COMPOUND": "CCOC(=O)c1ccc(C(=O)C(C(C)=O)C(=O)OC(C)(C)C)[nH]1 (stereo not given)", "ASSIGNED LABEL": "false (0)"}
{"COMPOUND": "O=C1c2cccnc2-c2nccc3ccnc1c23", "ASSIGNED LABEL": "true (1)"}
{"COMPOUND": "CN(C)C(=O)/N=c1\\ss/c(=N\\C(=S)N(C)C)n1-c1ccccc1", "ASSIGNED LABEL": "false (0)"}
{"COMPOUND": "COc1cccc(-c2[nH]c3cc4c(cc3c(=O)c2C(=O)O)OCO4)c1", "ASSIGNED LABEL": "false (0)"}

query: How did this test come out for Cc1ccc(-n2cnc3c(N)nc(N)nc32)cc1 ?
result: false (0)

query: How did this test come out for CC1(C)CC(=O)C2(CC(CSc3ccccc3)C(CS(=O)(=O)c3ccccc3)C2)C(=O)C1 (stereo not given) ?
result: false (0)

query: How did this test come out for COC1=CC(=O)NCCN1 ?
result: false (0)

query: How did this test come out for CCOC(=O)C1C(=O)CN2CCc3c([nH]c4ccccc34)C12C(=O)OCC (stereo not given) ?
result: false (0)

query: How did this test come out for O=c1[nH]cc(/C=N\Nc2ccccc2)c(=O)[nH]1 ?
result: false (0)

query: How did this test come out for N#CCC(=O)N/N=C1\C(=O)N(c2ccc(Cl)cc2)C(=O)C(=O)C1c1nc2ccccc2o1 (stereo not given) ?
result: false (0)

query: How did this test come out for COc1ccc2nc(-c3ccc(O)cc3)cn2c1 ?
result: false (0)

query: How did this test come out for Cn1c(=O)c2c(nc(C(=N)SCC(=O)O)n2C)n(C)c1=O ?
result: false (0)

query: How did this test come out for CC(=O)c1cccc(NC(=O)C(=O)C(C(=O)c2ccccc2F)C2OC(=O)c3ccccc32)c1 (stereo not given) ?
result: false (0)

query: How did this test come out for NC(=O)c1cn(C2OC(CO)C(O)C2O)c(=O)[nH]c1=O (stereo not given) ?
result: false (0)

query: How did this test come out for CC(=O)Nc1ccc(-c2nnc(SCC(=O)Nc3cccc(C)c3)o2)cc1 ?
result: false (0)

query: How did this test come out for COC(=O)[C@@H]1c2cc3c(c(O)c2[C@@H](OC2OC(C)C(OC)C(C)(OC)C2OC)C[C@]1(C)O)C(=O)c1c(O)cc2c(c1C3=O)O[C@H]1O[C@]2(C)[C@H](O)[C@@H](N(C)C)[C@@H]1O (stereo not given in full) ?
result: true (1)

query: How did this test come out for CO/C=C(/C(=O)OC)c1ccccc1[C@@H]1CC1c1cccc(F)c1 (stereo not given in full) ?
result: false (0)

query: How did this test come out for CCOC(=O)c1nc2ccc(C(F)(F)F)cc2nc1NCc1ccc(Cl)c(Cl)c1 ?
result: false (0)

* * *

System: OVCAR-3
Assay: NCI tumour cell line growth inhibition, 48 h
Activity calls are given as the source filed them. Cut-off read from the data, not from the text of the source: active = GI50 up to about 1.1 µM and inactive = higher.
Tick one outcome: True (active), False (inactive)

query: How did this test come out for CCN(CC)C(=O)c1ccc(C)c(/N=N/N(C)C)c1 ?
result: False

query: How did this test come out for NC(=S)N/N=C/C(O[C@@H](/C=N/NC(N)=S)CO)n1cnc2c(N)ncnc21 (some centres undefined) ?
result: False

query: How did this test come out for Cc1c(C)c2ccc3oc4ccccc4c3c2oc1=O ?
result: False

query: How did this test come out for Cc1ccc2c(O)cc(-c3ccccc3)nc2n1 ?
result: True

* * *

System: MDA-MB-231
Test: NCI tumour cell line growth inhibition, 48 h
Active and inactive are the calls of the source. No stated cut-off is given here; in the data, active = GI50 up to about 1.1 µM and inactive = higher.
Tick one outcome: active, inactive

Solved cases below.
{"MOLECULE": "Cc1[nH]c2c(c1Cc1ccccc1)C1=NC=C(O)NN1C=N2", "ASSIGNED LABEL": "inactive"}
{"MOLECULE": "CCOC(=O)/C=C(\\C(=O)OCC)n1cc(C)c(=O)n(Cc2cnnn2CCCCOC(C)=O)c1=O", "ASSIGNED LABEL": "inactive"}
{"MOLECULE": "CC1=C2C(=C[C@@](C)(CO)[C@@H]2O)C(=O)[C@](C)(O)C12CC2", "ASSIGNED LABEL": "active"}

query: How did this test come out for c1ccc(-c2ccc(-c3cc4ccccc4[nH]3)cc2)cc1 ?
result: inactive

query: How did this test come out for [N-]=[N+]=CC(=O)OCCCCl ?
result: inactive

query: How did this test come out for CCc1nc(N)nc(N)c1-c1ccc(Cl)c(Cl)c1 ?
result: inactive

query: How did this test come out for Cc1ccc2c(=O)c(C(=O)Nn3c(C)csc3=S)c[nH]c2n1 ?
result: inactive

query: How did this test come out for COc1cc(C2C(C#N)=C(N)OC3=C2CCS(=O)(=O)c2ccc(C)cc23)cc(OC)c1OC (stereo not given) ?
result: inactive

query: How did this test come out for O=C(CC(=O)Nc1ccc(C(=O)O)cc1)Nc1ccc(C(=O)O)cc1 ?
result: inactive

query: How did this test come out for CCC(=O)C1(N2CCOCC2)CCN(CCCC(=O)c2ccc(F)cc2)CC1 ?
result: inactive
